Biological target: UniProtKB P21589
Sequence (P21589 27-549): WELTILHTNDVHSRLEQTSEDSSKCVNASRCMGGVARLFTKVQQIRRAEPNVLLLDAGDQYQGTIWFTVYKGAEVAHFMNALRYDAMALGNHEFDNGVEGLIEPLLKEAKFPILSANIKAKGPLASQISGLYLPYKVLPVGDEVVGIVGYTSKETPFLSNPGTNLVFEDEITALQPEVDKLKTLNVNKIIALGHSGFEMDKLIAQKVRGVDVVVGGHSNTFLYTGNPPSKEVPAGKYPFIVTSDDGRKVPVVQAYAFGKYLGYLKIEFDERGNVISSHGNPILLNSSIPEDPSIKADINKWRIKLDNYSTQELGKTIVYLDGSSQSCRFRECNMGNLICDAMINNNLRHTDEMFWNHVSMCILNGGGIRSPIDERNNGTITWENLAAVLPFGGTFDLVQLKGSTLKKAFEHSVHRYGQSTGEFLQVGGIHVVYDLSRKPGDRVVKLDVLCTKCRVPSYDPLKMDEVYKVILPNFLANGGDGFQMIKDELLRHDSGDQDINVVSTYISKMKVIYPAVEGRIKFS
Test: Inhibition of Ecto-5′-nucleotidase (CD73) activity in CHO-CD73 cells, phosphate release from AMP
Conditions: CHO-K1 cells stably transfected with human CD73; 25 μM AMP; 50 minutes, 37° C.; read-out: Potency: CD73 IC50
Reported IC50 by item:

Inquiry: Name the recorded IC50 for Cc1ccc(Cn2nccc2-c2cc(Cl)c3nnn(-c4ccc5cn[nH]c5c4)c3c2)[n+]([O-])c1 [Example 381] .
Reply text: < 100 nM
